molecular target: cynomolgus CD45 ectodomain; assay: Biolayer interferometry (BLI, Octet) binding of immobilized IgG to purified CD45 ectodomain; conditions: Table 2, Cynomolgus CD45; 50 nM antigen (Ab1: 300 nM)
Sequence (as listed by the source): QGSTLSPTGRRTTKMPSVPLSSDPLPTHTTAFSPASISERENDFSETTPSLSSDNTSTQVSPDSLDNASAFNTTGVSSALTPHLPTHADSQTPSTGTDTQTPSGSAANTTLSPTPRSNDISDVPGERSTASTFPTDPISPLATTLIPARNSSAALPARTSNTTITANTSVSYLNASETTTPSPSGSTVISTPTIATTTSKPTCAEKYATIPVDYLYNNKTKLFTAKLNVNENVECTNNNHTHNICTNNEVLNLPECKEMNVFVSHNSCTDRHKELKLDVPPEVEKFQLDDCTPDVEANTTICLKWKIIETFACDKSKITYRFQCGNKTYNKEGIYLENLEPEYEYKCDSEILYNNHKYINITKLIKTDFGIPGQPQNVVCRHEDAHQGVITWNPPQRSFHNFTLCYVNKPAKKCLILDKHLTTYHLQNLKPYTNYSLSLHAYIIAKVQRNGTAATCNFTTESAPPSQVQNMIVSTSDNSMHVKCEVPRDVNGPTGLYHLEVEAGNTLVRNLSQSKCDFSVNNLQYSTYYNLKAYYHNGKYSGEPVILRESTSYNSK
metric: Kd (nM)
Give bare numbers, in nM.

Q: Which measured Kd value corresponds to Ab2: affinity matured human anti-CD45 IgG derived from Ab1; VH SEQ ID NO:11, VL SEQ ID NO:15 (antibody, V domains shown) VH: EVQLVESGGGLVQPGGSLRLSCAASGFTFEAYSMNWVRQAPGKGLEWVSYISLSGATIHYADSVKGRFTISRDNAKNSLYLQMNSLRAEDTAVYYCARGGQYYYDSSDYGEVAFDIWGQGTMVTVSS VL: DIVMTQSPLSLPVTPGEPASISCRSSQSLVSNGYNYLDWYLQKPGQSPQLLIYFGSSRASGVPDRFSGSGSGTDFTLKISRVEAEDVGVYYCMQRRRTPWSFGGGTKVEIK ?
Result: 1.08

Now take the following molecule into account.
Q: Kd for Ab7: variant of Ab3 with asparagine to serine substitution in CDR-L1; VH SEQ ID NO:61, VL SEQ ID NO:65 (antibody, V domains shown) VH: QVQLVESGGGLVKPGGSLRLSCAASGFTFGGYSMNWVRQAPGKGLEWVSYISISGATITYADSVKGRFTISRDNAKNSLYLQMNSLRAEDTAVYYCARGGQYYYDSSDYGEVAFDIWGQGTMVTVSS VL: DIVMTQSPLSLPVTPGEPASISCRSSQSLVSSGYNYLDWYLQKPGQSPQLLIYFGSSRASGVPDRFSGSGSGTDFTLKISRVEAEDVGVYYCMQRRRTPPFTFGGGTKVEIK ?
Result: 4.24

Just for reference, patent US12209135B2 is where these values come from.
